Origin of values: ChEMBL document CHEMBL1201862

- Test system: HL-60
- Experimental Details: NCI tumour cell line growth inhibition, 48 h
Activity calls are given as the source filed them. Cut-off read from the data, not from the text of the source: active = GI50 up to about 1.1 µM and inactive = higher.
GI50 values by entry

Consider the following illustrative entries.
Compound | Measured Value
COc1ccc(-c2c3c(cc4cc5c(cc24)OCO5)C(=O)OC3)cc1OC | 0.271 µM (active)
CC(=O)Oc1cc(OC(C)=O)c(OC(C)=O)c2c1CC1C(=O)C3(CCc4ccccc43)C(=O)C1C2 (stereo not given) | 4.53 µM (inactive)
CCOC1c2cc(C(C)C)c(O)c(O)c2[C@@]23CCCC(C)(C)C2C1OC3=O (stereo not given in full) | 93.1 µM (inactive)
CCOC(=O)c1c(N=C(S)Nc2ccc(Cl)cc2)sc2c1CCN(C)C2 | 32.9 µM (inactive)

QUERY: What value of GI50 has been reported for the following compound? `O=C1C=C(Nc2ccc(Cl)cc2Cl)c2ccccc2C1=O`
RESULT: 28.7 µM (inactive)

QUERY: What value of GI50 has been reported for the following compound? CNC1Cc2c[nH]c3cccc(c23)C12C=C(C)C(=O)O2 (stereo not given)
RESULT: > 100 µM (inactive)

* * *

GI50 values by entry
- Tested on: A498
- Experimental Details: NCI tumour cell line growth inhibition, 48 h
Calls of active or inactive are those of the source. Cut-off read from the data, not from the text of the source: active = GI50 up to about 1.1 µM and inactive = higher.

QUERY: Tell me reported GI50 for `O=C1C[C@H](Sc2ccccc2)C2(OCCO2)[C@H]2ON3CCC[C@@H]3[C@@H]12` , tested with A498.
RESULT: 13.2 µM (inactive)

QUERY: Tell me reported GI50 for NC(=O)CCC(NC(=O)C(F)(F)F)C(=O)O (stereo not given) , tested with A498.
RESULT: > 100 µM (inactive)

QUERY: Tell me reported GI50 for `CC(C)(C)OC(=O)N(CCCN)CCCCN` , tested with A498.
RESULT: > 100 µM (inactive)

* * *

- Test system: IGROV-1
- Experimental Details: NCI tumour cell line growth inhibition, 48 h
Activity calls are given as the source filed them. Cut-off read from the data, not from the text of the source: active = GI50 up to about 1.1 µM and inactive = higher.
// classify into TRUE for active, FALSE for inactive

Illustrative cases are given below, each with its answer.
Molecule | Cat
CN/C(=N\N=C1/C(=O)Nc2ccccc21)SCC(=O)c1ccc(Br)cc1 | FALSE
O=c1[nH]nc(Cc2ccc(Cl)cc2)n1/N=C\c1ccc(/C=N/n2c(Cc3ccc(Cl)cc3)n[nH]c2=O)cc1 | FALSE
CC1=CC[C@@H]2[C@@H](CC[C@@]2(C)O)C(C)(C)[C@H]1CC[C@@H]1[C@@]2(C)CCC(=O)C(C)(C)O[C@@H]2CC[C@]1(C)O | FALSE
COC(=O)c1ccccc1C1CN=NC12Cc1ccc3ccccc3c1C2=O (stereo not given) | FALSE
S=C(N/N=C(/c1ccccc1)c1ccccn1)N1CCCCC1 | TRUE
CC1NCCC(CC(=O)O)C1CC(=O)O (stereo not given) | FALSE

QUERY: Would you mind telling me which call this test gave CN(C)CC(/C(Cc1ccccc1)=N\NC(=S)NN)c1ccccc1 (stereo not given) ?
RESULT: FALSE

QUERY: Would you mind telling me which call this test gave Cc1ccc(CC(C)N)cc1 (stereo not given) ?
RESULT: FALSE

QUERY: Would you mind telling me which call this test gave COc1c(O)ccc2c1CN1CCc3cc4c(cc3C1C2)OCO4 (stereo not given) ?
RESULT: FALSE

QUERY: Would you mind telling me which call this test gave CC1CC(=O)C(CC(=O)O)[C@H]1C(C(=O)C(=O)Nc1cc(Cl)ccc1Cl)[N+](=O)[O-] (stereo not given in full) ?
RESULT: FALSE

QUERY: Would you mind telling me which call this test gave `Cc1nc(C(N)=S)sc1C(=O)CC(=O)C(=O)Nc1cccc(Cl)c1C` ?
RESULT: FALSE
